# measurement target: BRD2-BD1 (Homo sapiens (Human), UniProt P25440)
# Sequence (P25440 74-180): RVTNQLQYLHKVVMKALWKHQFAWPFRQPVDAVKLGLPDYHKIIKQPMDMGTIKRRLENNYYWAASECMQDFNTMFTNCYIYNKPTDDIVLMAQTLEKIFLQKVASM
# experiment description: competitive TR-FRET assay, BET-BD with acetylated peptide ligand
# Assay type: binding
# condition notes: BRD2-BD1; Table 11 additional modifications; read-out: 2.1 EC50
pEC50: −log10 of the molar value.
endpoint name: pEC50

Worked examples, 5 molecules total:
[[record]]
molecule = "CCCCN(CCCC)c1cccc(-c2ccc3c(c2)[C@H](Nc2ccccc2OC(F)(F)F)C[C@H](C)N3C(C)=O)c1 [compound 146]"
numeric_readout = 4.11

[[record]]
molecule = "COC(=O)c1ccc(N[C@@H]2C[C@H](C)N(C(C)=O)c3ccc(-c4cccc(NC(C)=O)c4)cc32)c(OC)c1 [compound 161]"
numeric_readout = 6.06

[[record]]
molecule = "CC(=O)Nc1cccc(-c2ccc3c(c2)[C@H](Nc2ccc(C(=O)O)cc2)C[C@H](C)N3C(C)=O)c1 [compound 120]"
numeric_readout = 4.48

[[record]]
molecule = "CC(=O)N1c2ccc(-c3cccc(NC(=O)Cc4ccccc4)c3)cc2[C@H](NC(=O)OC(C)C)C[C@@H]1C [compound 110]"
numeric_readout = 5.89

[[record]]
molecule = "CC(=O)N1c2ccc(-c3cccc(NC(=O)C4CCC(C)CC4)c3)cc2[C@H](NC(=O)OC(C)C)C[C@@H]1C (some centres unmarked) [compound 102]"
numeric_readout = 5.32


1 = CC(=O)Nc1cccc(-c2ccc3c(c2)[C@H](Nc2ccc(C#N)c(Cl)c2)C[C@H](C)N3C(C)=O)c1 [compound 186]
2 = CC(=O)N1c2ccc(-c3ccc(Oc4ccccc4)cc3)cc2[C@H](NC(=O)OC(C)C)C[C@@H]1C [compound 61]
// compare measured pEC50, left 1 , right 2 , return larger Please indicate the selected item by its label.
1
(1: 5.68, 2: 4.89)

I = CC(=O)N1c2ccc(-c3cccc(NC(=O)C4CC4)c3)cc2[C@H](NC(=O)OC(C)C)C[C@@H]1C [compound 94]
II = CCCCOc1cccc(-c2ccc3c(c2)[C@H](Nc2ccc(C(=O)OC)cc2)C[C@H](C)N3C(C)=O)c1 [compound 164]
// compare measured pEC50, left I , right II , return larger Please indicate the selected item by its label.
I

a = CC(=O)Nc1cccc(-c2ccc3c(c2)[C@H](Nc2ccc(C(=O)N(C)C)cc2)C[C@H](C)N3C(C)=O)c1 [compound 174]
b = CC(=O)N1c2ccc(-c3cccc(-n4cccn4)c3)cc2[C@H](Nc2ccc(Cl)cc2)C[C@@H]1C [compound 136]
// compare measured pEC50, left a , right b , return larger Please indicate the selected item by its label.
a

I = COc1ccccc1-c1ccc2c(c1)[C@H](NC(=O)OC(C)C)C[C@H](C)N2C(C)=O [compound 60]
II = CC(=O)N1c2ccc(-c3cccc(NC(=O)CC(C)C)c3)cc2[C@H](NC(=O)OC(C)C)C[C@@H]1C [compound 104]
// compare measured pEC50, left I , right II , return larger Please indicate the selected item by its label.
II
(II: 5.80, I: 4.82)

====

# measurement target: BRD4-BD1 (Homo sapiens (Human), UniProt O60885)
# experiment description: competitive TR-FRET assay, BET-BD with acetylated peptide ligand
# Assay type: binding
# condition notes: BRD4-BD1; Table 11 additional modifications; read-out: 4.1 EC50
pEC50: −log10 of the molar value.
endpoint name: pEC50

Worked examples, 3 molecules total:
[[record]]
smiles_record = "CC(=O)N1c2ccc(-c3ccc(Oc4ccccc4)cc3)cc2[C@H](NC(=O)OC(C)C)C[C@@H]1C"
numeric_readout = 4.96

[[record]]
smiles_record = "CC(=O)Nc1cccc(-c2ccc3c(c2)[C@H](NC(=O)CC(C)C)C[C@H](C)N3C(C)=O)c1"
numeric_readout = 4.48

[[record]]
smiles_record = "CC(=O)N1c2ccc(-c3cccc(NC(=O)C4CC4)c3)cc2[C@H](NC(=O)OC(C)C)C[C@@H]1C"
numeric_readout = 5.85


I = COC(=O)c1ccoc1-c1ccc2c(c1)[C@H](NC(=O)OC(C)C)C[C@H](C)N2C(C)=O
II = CC(=O)N1c2ccc(-c3cccc(NC(=O)CC(C)C)c3)cc2[C@H](NC(=O)OC(C)C)C[C@@H]1C
III = CC(=O)N1c2ccc(-c3cccn(C)c3=O)cc2[C@H](NC(=O)OC(C)C)C[C@@H]1C
Descending sort on pEC50 required. Return value: ordered labels per request.
II, I, III
